Target: CCK receptor (brain, cerebral cortex) (Cavia porcellus)
Construct: Cerebral cortex was dissected and used as a receptor source; from tissue; host or cells: guinea pig cerebral cortex membranes (male Hartley)
Test: biochemical
Assay type: binding, Male Hartley guinea pigs
Details: IC50 ^125 I-CCK Brain, guinea pig cerebral cortex, ^125 I-CCK-33, 25° C., 2 hours
For each entry below, report its IC50 value.
One number for each entry, in µM.

>  <COMPOUND>
O=C(NC1N=C(c2ccccc2)c2ccccc2NC1=O)c1ccc(F)cc1 (racemic)

>  <NUMERIC RESULT>
43

$$$$
>  <COMPOUND>
O=C(OC1N=C(c2ccccc2)c2ccccc2NC1=O)c1cc2ccccc2[nH]1 (racemic)

>  <NUMERIC RESULT>
50

$$$$
>  <COMPOUND>
O=C(NN=C1Nc2ccccc2C(c2ccccc2F)=N[C@@H]1Cc1c[nH]c2ccccc12)c1ccsc1

>  <NUMERIC RESULT>
15

$$$$
>  <COMPOUND>
O=C1Nc2ccccc2C(c2ccccc2F)=NC1Cc1c[nH]c2cc(F)ccc12 (racemic)

>  <NUMERIC RESULT>
100

$$$$

I would be grateful if you could provide IC50 for each of the following entries.
1. CN1C(=O)C(NC(=O)Nc2cccc(Br)c2)N=C(c2ccccc2)c2ccccc21 (centres unmarked)
2. O=C(NC1N=C(c2ccccc2F)c2ccccc2NC1=O)c1cc2cc(O)ccc2[nH]1 (racemic)
3. CN1C(=O)[C@@H](NC(=O)c2ccc(Br)cc2)N=C(c2ccccc2)c2ccccc21

1. 0.005
2. 16
3. 1.6

----------
For each entry below, report its pIC50 value.
Target: CCK receptor (brain, cerebral cortex) (Cavia porcellus, UniProt H0VZC5)
Construct: Cerebral cortex was dissected and used as a receptor source; from tissue; host or cells: guinea pig cerebral cortex membranes (male Hartley)
Sequence (H0VZC5 1-426): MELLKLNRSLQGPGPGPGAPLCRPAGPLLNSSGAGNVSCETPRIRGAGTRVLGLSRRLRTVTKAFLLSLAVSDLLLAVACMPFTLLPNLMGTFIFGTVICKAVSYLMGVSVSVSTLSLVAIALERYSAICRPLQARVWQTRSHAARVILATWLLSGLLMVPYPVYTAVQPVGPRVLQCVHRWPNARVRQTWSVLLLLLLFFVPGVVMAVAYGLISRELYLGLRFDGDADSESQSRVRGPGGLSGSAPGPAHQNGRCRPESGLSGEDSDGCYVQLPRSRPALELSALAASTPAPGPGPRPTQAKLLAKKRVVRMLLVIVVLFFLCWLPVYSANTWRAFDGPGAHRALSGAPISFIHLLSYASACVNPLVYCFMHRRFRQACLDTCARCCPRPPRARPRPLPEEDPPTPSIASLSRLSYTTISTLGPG
Assay: biochemical
Assay type: binding, Male Hartley guinea pigs
Conditions: IC50 ^125 I-CCK Brain, guinea pig cerebral cortex, ^125 I-CCK-33, 25° C., 2 hours
One number for each entry, as −log10 of the molar value.

The following compounds have reported results that may help.
>  <COMPOUND>
C[C@@H](NC(=O)NC1N=C(c2ccccc2)c2ccccc2N(C)C1=O)c1ccccc1 (stereo partly shown) [Example 261]

>  <PROPERTY MEASURED>
pIC50

>  <NUMERIC RESULT>
4.96

$$$$
>  <COMPOUND>
O=C1Nc2ccc(Cl)cc2C(c2ccccc2)=N[C@@H]1COCc1ccccc1 [Example 15]

>  <PROPERTY MEASURED>
pIC50

>  <NUMERIC RESULT>
4.10

$$$$

Using the record for CN1C(=O)[C@H](NC(=O)c2ccccc2Br)N=C(c2ccccc2F)c2ccccc21 [Example 171] , state its measured pIC50. 5.25

----------
Target: CCK receptor (brain, cerebral cortex) (Cavia porcellus)
Construct: Cerebral cortex was dissected and used as a receptor source; from tissue; host or cells: guinea pig cerebral cortex membranes (male Hartley)
Test: biochemical
Type: binding, Male Hartley guinea pigs
Conditions: IC50 ^125 I-CCK Brain, guinea pig cerebral cortex, ^125 I-CCK-33, 25° C., 2 hours
pIC50: −log10 of the molar value.
pIC50 of 5 or higher: 1.0. Under 5: 0.0.

Example cases with answers are listed next.
>  <MOLECULE>
O=C(Cc1cccc2sccc12)NC1N=C(c2ccccc2F)c2ccccc2NC1=O (racemic) [Example 110]

>  <DISCRETE LABEL>
1.0

$$$$
>  <MOLECULE>
NCCCC[C@H]1N=C(c2ccccc2F)c2ccccc2NC1=O [Example 65]

>  <DISCRETE LABEL>
0.0

$$$$
>  <MOLECULE>
O=C1Nc2ccccc2C(c2ccccc2F)=NC1NCc1cc2ccccc2[nH]1 (racemic) [Example 124]

>  <DISCRETE LABEL>
0.0

$$$$
>  <MOLECULE>
CN1C(=O)[C@H](NC(=O)c2ccccc2I)N=C(c2ccccc2F)c2ccccc21 [Example 169]

>  <DISCRETE LABEL>
1.0

$$$$
>  <MOLECULE>
CN1C(=O)[C@H](NC(=O)[C@@H](N)Cc2ccccc2)N=C(c2ccccc2)c2ccccc21 [Example 84b]

>  <DISCRETE LABEL>
0.0

$$$$

Does S=C1Nc2ccc(Cl)cc2C(c2ccccc2)=N[C@@H]1Cc1c[nH]c2ccccc12 [Example 34] have a reported pIC50 of at least 5? 0.0

Does O=C(NC1N=C(c2ccccc2)c2ccccc2NC1=O)c1ccc(Cl)c(Cl)c1 (racemic) [Example 141] have a reported pIC50 of at least 5? 0.0

Does O=C(NC1N=C(c2ccccc2)c2ccccc2NC1=O)c1cccc(Cl)c1 (racemic) [Example 140] have a reported pIC50 of at least 5? 0.0

Does CN1C(=O)C(NC(=O)c2ccc(Cl)cc2)[N+]([O-])=C(c2ccccc2F)c2ccccc21 (racemic) [Example 142] have a reported pIC50 of at least 5? 0.0

Does O=C(NC1N=C(c2ccccc2F)c2ccccc2NC1=O)c1cc2cc(Cl)ccc2[nH]1 (racemic) [Example 118] have a reported pIC50 of at least 5? 0.0

Does O=C1Nc2ccccc2C(c2ccccc2F)=NC1Cc1cccs1 (racemic) [Example 19] have a reported pIC50 of at least 5? 0.0

Does CN1C(=O)C(NC(=O)Nc2ccc(Cl)c(Cl)c2)N=C(c2ccccc2)c2ccccc21 (centres unmarked) [Example 257] have a reported pIC50 of at least 5? 1.0

Does CC(C)C[C@H]1N=C(c2ccccc2)c2cc(Cl)ccc2NC1=O [Example 14] have a reported pIC50 of at least 5? 0.0

Does CN1C(=O)[C@@H](NC(=O)c2ccc(I)cc2)N=C(c2ccccc2F)c2ccccc21 [Example 159] have a reported pIC50 of at least 5? 1.0

Does COc1cccc(NC(=O)NC2N=C(c3ccccc3)c3ccccc3N(C)C2=O)c1 (centres unmarked) [Example 247] have a reported pIC50 of at least 5? 1.0

----------
Molecular target: Gastrin receptor (gastric glands) (Cavia porcellus)
Construct: The washed guinea pig gastric glands prepared as above were resuspended; from tissue; host or cells: guinea pig gastric mucosal glands (male Hartley)
Test: Gastrin Receptor Binding in Guinea Pig Gastric Glands
Set-up: species or system guinea pig (male Hartley)
Details: ^125 I-gastrin, 25° C., 30 minutes, read-out: IC50 ^125 I-Gastrin Gastric Glands
PROPERTY MEASURED: pIC50
Answers are plain numbers, as −log10 of the molar value.

>  <COMPOUND>
CN1C(=O)C(NC(=O)[C@@H](Cc2ccccc2)NC(=O)OC(C)(C)C)N=C(c2ccccc2F)c2ccccc21 (stereo partly drawn) [Example 231]

>  <PROPERTY MEASURED>
pIC50

>  <NUMERIC RESULT>
5.54

$$$$
>  <COMPOUND>
CCOC(=O)CN1C(=O)C(NC(=O)Nc2ccc(Cl)cc2)N=C(c2ccccc2F)c2ccccc21 (stereo not drawn) [Example 194]

>  <PROPERTY MEASURED>
pIC50

>  <NUMERIC RESULT>
8.40

$$$$
>  <COMPOUND>
CCN(CC)C(=O)CN1C(=O)C(NC(=O)Nc2ccc(Cl)cc2)N=C(c2ccccc2)c2ccccc21 (stereo not drawn) [Example 221]

>  <PROPERTY MEASURED>
pIC50

>  <NUMERIC RESULT>
8.70

$$$$

I would be grateful if you could provide pIC50 for each of the following entries.
1. CN1C(=O)[C@H](NC(=O)c2ccccc2Cl)N=C(c2ccccc2)c2ccccc21 [Example 151]
2. O=C(Nc1ccc(Cl)cc1)NC1N=C(c2ccccc2)c2ccccc2N(CC(=O)OCc2ccccc2)C1=O (stereo not drawn) [Example 208]

[5.12, 6.85]

----------
For each entry below, report its IC50 value.
Molecular target: CCK receptor (brain, cerebral cortex) (Cavia porcellus, UniProt H0VZC5)
Construct: Cerebral cortex was dissected and used as a receptor source; from tissue; host or cells: guinea pig cerebral cortex membranes (male Hartley)
Assay: biochemical
Type: binding, Male Hartley guinea pigs
Settings: guinea pig cerebral cortex, ^125 I-CCK-33, 25° C., 2 hours; read-out: IC50 ^125 I-CCK Brain
Numbers only, in µM.

>  <COMPOUND>
CN1C(=O)[C@@H](NC(=O)[C@@H](Cc2ccccc2)NC(=O)OC(C)(C)C)N=C(c2ccccc2F)c2ccccc21

>  <READING UNIT>
µM

>  <IC50>
1

$$$$
>  <COMPOUND>
CC(C)(C)C(=O)OCOC(=O)CN1C(=O)C(NC(=O)c2cc3ccccc3[nH]2)N=C(c2ccccc2)c2ccccc21 (centres unmarked)

>  <READING UNIT>
µM

>  <IC50>
0.31

$$$$

Now examine the next entry.
Using the record for CN1CCN(C(=O)CN2C(=O)C(NC(=O)OCc3ccccc3)N=C(c3ccccc3)c3ccccc32)CC1 (centres unmarked) , state its measured IC50. 1.7

----------
Target: Gastrin receptor (gastric glands) (Cavia porcellus, UniProt H0VZC5)
Construct: The washed guinea pig gastric glands prepared as above were resuspended; from tissue; host or cells: guinea pig gastric mucosal glands (male Hartley)
Experiment: Gastrin Receptor Binding in Guinea Pig Gastric Glands
Parameters: species or system guinea pig (male Hartley)
Conditions: ^125 I-gastrin, 25° C., 30 minutes, read-out: IC50 ^125 I-Gastrin Gastric Glands
PROPERTY MEASURED: IC50 (nM)
Give bare numbers, in nM.

The following compounds have reported results that may help.
>  <COMPOUND>
CN1C(=O)[C@H](NC(=O)Nc2ccc(Cl)cc2)N=C(c2ccccc2)c2ccccc21

>  <READING UNIT>
nM

>  <IC50>
12

$$$$
>  <COMPOUND>
CN1C(=O)C(C(O)c2ccccc2)N=C(c2ccccc2)c2ccccc21 (racemic)

>  <READING UNIT>
nM

>  <IC50>
25000

$$$$

Using the record for CCNC(=O)CN1C(=O)C(NC(=O)Nc2ccc(Cl)cc2)N=C(c2ccccc2)c2ccccc21 (stereo not drawn) , state its measured IC50. 25
